MEASURED ON: T1, human TfR apical domain (human)
T1 chain: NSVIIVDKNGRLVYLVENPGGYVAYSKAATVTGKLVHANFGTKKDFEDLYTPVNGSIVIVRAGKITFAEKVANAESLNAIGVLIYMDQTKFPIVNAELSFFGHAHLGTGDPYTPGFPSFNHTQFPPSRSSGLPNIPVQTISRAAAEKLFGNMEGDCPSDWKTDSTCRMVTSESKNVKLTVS
MEASUREMENT DESCRIPTION: SPR
Property: Kd; scope: individual binders
Field: numeric (µM). Do not append units.

Some binders with recorded Kd:
BINDER	PARAMETER MEASURED	UNITS LABEL	VAL
35.d1.20 (protein) ASTKGPSVFPLAPSSKSTSGGTAALGCLVKDYFPEPVTVSWNSGALTSGVHTFPAVLQSSGLYSLSSVVTVPSSSLGTQTYICNVNHKPSNTKVDKKVEPKSCDKTHTCPPCPAPELLGGPSVFLFPPKPKDTLMISRTPEVTCVVVDVSHEDPEVKFNWYVDGVEVHNAKTKPREEQYNSTYRVVSVLTVLHQDWLNGKEYKCKVSNKALPAPIEKTISKAKGQPREPQVYTLPPSRDELTKNQVSLTCLVKGFYPSDIAVEWESYGTEWVNYKTTPPVLDSDGSFFLYSKLTVSKSEWQQGFVFSCSVMHEALHNHYTQKSLSLSPELQLEESCAEAQDGELDGLWTT	Kd	µM	3.6
35.d1.21 (protein) ASTKGPSVFPLAPSSKSTSGGTAALGCLVKDYFPEPVTVSWNSGALTSGVHTFPAVLQSSGLYSLSSVVTVPSSSLGTQTYICNVNHKPSNTKVDKKVEPKSCDKTHTCPPCPAPELLGGPSVFLFPPKPKDTLMISRTPEVTCVVVDVSHEDPEVKFNWYVDGVEVHNAKTKPREEQYNSTYRVVSVLTVLHQDWLNGKEYKCKVSNKALPAPIEKTISKAKGQPREPQVYTLPPSRDELTKNQVSLTCLVKGFYPSDIAVEWESYGTEWVNYKTTPPVLDSDGSFFLYSKLTVSKSEWQQGYVFSCSVMHEALHNHYTQKSLSLSPELQLEESCAEAQDGELDGLWTT	Kd	µM	14.1
35.d1.11 (protein) ASTKGPSVFPLAPSSKSTSGGTAALGCLVKDYFPEPVTVSWNSGALTSGVHTFPAVLQSSGLYSLSSVVTVPSSSLGTQTYICNVNHKPSNTKVDKKVEPKSCDKTHTCPPCPAPELLGGPSVFLFPPKPKDTLMISRTPEVTCVVVDVSHEDPEVKFNWYVDGVEVHNAKTKPREEQYNSTYRVVSVLTVLHQDWLNGKEYKCKVSNKALPAPIEKTISKAKGQPREPQVYTLPPSRDELTKNQVSLTCLVKGFYPSDIAVEWESYGTEWSNYKTTPPVLDSDGSFFLYSKLTVTKSEWQQGYVFSCSVMHEALHNHYTQKSLSLSPELQLEESCAEAQDGELDGLWTT	Kd	µM	2.5
TV35.d1.9 (protein) PCPAPEAAGGPSVFLFPPKPKDTLMISRTPEVTCVVVDVSHEDPEVKFNWYVDGVEVHNAKTKPREEQYNSTYRVVSVLTVLHQDWLNGKEYKCKVSNKALGAPIEKTISKAKGQPREPQVYTLPPSRDELTKNQVSLWCLVKGFYPSDIAVEWESYGTEWTNYKTTPPVLDSDGSFFLYSKLTVTKSEWQQGFVFSCSVMHEALHNHYTQKSLSLSPGK	Kd	µM	8.4
35.d1.17 (protein) ASTKGPSVFPLAPSSKSTSGGTAALGCLVKDYFPEPVTVSWNSGALTSGVHTFPAVLQSSGLYSLSSVVTVPSSSLGTQTYICNVNHKPSNTKVDKKVEPKSCDKTHTCPPCPAPELLGGPSVFLFPPKPKDTLMISRTPEVTCVVVDVSHEDPEVKFNWYVDGVEVHNAKTKPREEQYNSTYRVVSVLTVLHQDWLNGKEYKCKVSNKALPAPIEKTISKAKGQPREPQVYTLPPSRDELTKNQVSLTCLVKGFYPSDIAVEWESFGTEWTNYKTTPPVLDSDGSFFLYSKLTVSKSEWQQGFVFSCSVMHEALHNHYTQKSLSLSPELQLEESCAEAQDGELDGLWTT	Kd	µM	18.8
35.d1.22 (protein) ASTKGPSVFPLAPSSKSTSGGTAALGCLVKDYFPEPVTVSWNSGALTSGVHTFPAVLQSSGLYSLSSVVTVPSSSLGTQTYICNVNHKPSNTKVDKKVEPKSCDKTHTCPPCPAPELLGGPSVFLFPPKPKDTLMISRTPEVTCVVVDVSHEDPEVKFNWYVDGVEVHNAKTKPREEQYNSTYRVVSVLTVLHQDWLNGKEYKCKVSNKALPAPIEKTISKAKGQPREPQVYTLPPSRDELTKNQVSLTCLVKGFYPSDIAVEWESYGNEWSNYKTTPPVLDSDGSFFLYSKLTVSKEEWQQGFVFSCSVMHEALHNHYTQKSLSLSPELQLEESCAEAQDGELDGLWTT	Kd	µM	5.2
35.d1.15 (protein) ASTKGPSVFPLAPSSKSTSGGTAALGCLVKDYFPEPVTVSWNSGALTSGVHTFPAVLQSSGLYSLSSVVTVPSSSLGTQTYICNVNHKPSNTKVDKKVEPKSCDKTHTCPPCPAPELLGGPSVFLFPPKPKDTLMISRTPEVTCVVVDVSHEDPEVKFNWYVDGVEVHNAKTKPREEQYNSTYRVVSVLTVLHQDWLNGKEYKCKVSNKALPAPIEKTISKAKGQPREPQVYTLPPSRDELTKNQVSLTCLVKGFYPSDIAVEWESYGTEWSNYKTTPPVLDSDGSFFLYSKLTVSKSEWQQGYVFSCSVMHEALHNHYTQKSLSLSPELQLEESCAEAQDGELDGLWTT	Kd	µM	3.6

Here is another binder to look at.
Prompt: What value of measured Kd is listed for 35.d1.4 (protein) ASTKGPSVFPLAPSSKSTSGGTAALGCLVKDYFPEPVTVSWNSGALTSGVHTFPAVLQSSGLYSLSSVVTVPSSSLGTQTYICNVNHKPSNTKVDKKVEPKSCDKTHTCPPCPAPELLGGPSVFLFPPKPKDTLMISRTPEVTCVVVDVSHEDPEVKFNWYVDGVEVHNAKTKPREEQYNSTYRVVSVLTVLHQDWLNGKEYKCKVSNKALPAPIEKTISKAKGQPREPQVYTLPPSRDELTKNQVSLTCLVKGFYPSDIAVEWESFGTEWSSYKTTPPVLDSDGSFFLYSKLTVSKSEWQQGFVFSCSVMHEALHNHYTQKSLSLSPELQLEESCAEAQDGELDGLWTT ?
Response: 1.4
